So I've got a bunch of binders here, and I need their % Change Compared to pH 7.4 + Calcium values.
Target: T1, recombinant, soluble human ASGR-1 (human, UniProt P07306 62-291)
T1 construct: biotinylated in the binning assay; also called soluble huASGR-1; Soluble ASGR-1 (Amgen)
T1 sequence: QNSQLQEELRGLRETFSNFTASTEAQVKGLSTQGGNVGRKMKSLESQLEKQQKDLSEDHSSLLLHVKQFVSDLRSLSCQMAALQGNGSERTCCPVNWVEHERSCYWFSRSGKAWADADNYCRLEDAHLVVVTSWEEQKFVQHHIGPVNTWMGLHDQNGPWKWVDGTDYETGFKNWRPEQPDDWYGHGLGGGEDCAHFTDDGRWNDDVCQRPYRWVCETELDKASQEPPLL
Assay: Octet BLI dissociation, pH 7.4 minus calcium
One number for each entry, in %.

Field: example entries. Status: answers known.
1. 7F4 (antibody, V domains shown, hybridoma mAb) VH: QLQLQESGPGLVKPSETLSLTCTVSGGSISRSSYYWGWIRQPPGKGLEWIGNIYYSGATYYNPSLKSRVTISVDTSTNQFSLKLSSVTAADTAVYYCARHSGSWSLDYWGQGTLVTVSS VL: DIQMTQSPSSLSASVGDRVTITCRTSQGIRNDLGWYQQKPGKAPKRLIYAASNLQSGVPSRFSGSGSGTEFTLTISSLQPEDFATYYCLQHSAYPLTFGGGTKVEIK : 4
2. 66H11 (antibody, V domains shown, hybridoma mAb) VH: QVQLVQSGAEVKKPGASVKVSCKASGYTFATYGISWVRQAPGQGLEWMGWISAYNGNTNYAQKLQGRVTMTTDTSTSTAYMELRSLRSDDTAVYYCARGEAVAVFDPWGQGTLVTVSS VL: DIQMTQFPSSLFAFVGDRVTITCPASQGISNYLAWFQQKPGKAPKSLIYGAFNLHSGVPSKFSGSGFGTDFTLTINSLQPEDFANYYCQQYSCYPFTFGHGTKVDIK : 81
3. 226F9 (antibody, V domains shown, hybridoma mAb) VH: QVQLVQSGAEVKKPGASVKVSCKASGYTFTGYYIHWVRQAPGQGLEWMGWINPYSGDTKYAQKFQGRVTMTRATSISTAYMELSRLRFDDTAVFYCARDWGGYSSYYYGMDVWGQGTTVTVSS VL: DIVMTQTPLSLSVTPGQPASISCKSSQSLLHSDGKTFLYWYLQKPGQPPQLLIYEISNRFSGVPDRFSGSGSGTDFTLKISRVEAEDVGIYYCMQSTQLPRTFGQGTKVEIK : 100

input: Reported % Change Compared to pH 7.4 + Calcium, binder 63A10 (antibody, V domains shown, hybridoma mAb) VH: EVQLVESGGGLVQPGGSLRLSCAASGFTFSSYSMNWVRQAPGKGLEWVSYISSSTSTIYYAASVKGRFTISRDNAKNSLYLQMNSLRDEDTAVYYCARDHRYYDSSGYYSDAFDIWGQGTMVTVSS VL: NFMLTQPHSVSESPGKTVTISCTRSNGSIVSNYVQWYQQRPGSSPTTVIYEDKRRPSGVPDRFSGSIDSSSNSASLTISGLKTEDEADYYCQSYDSINVVFGGGTKLTVL : ____
output: 8
